- Target Or System: GAL4 DBD (1-147)-CfEcR(DEF)/VP16AD-βRXREF-LmUSPEF (Choristoneura fumiferana)
- Test Details: cell-based
- Measurement Parameters: read-out: 27-63 assay EC50; CHO 27-63 stable cell line, luciferase reporter; average of two wells
pEC50: −log10 of the molar value.
Threshold rule: pEC50 greater than or equal to 6 is MET; below that, NOT MET.

compound_structure_string=COc1cc(C(=O)N(NC(=O)c2ccc3c(c2C)CCCO3)C(C)(C)C)cc(OC)c1C label_value=MET
compound_structure_string=CCc1c(OC)cccc1C(=O)NN(C(=O)c1cc(C)cc(C)c1)C(C)(C)CO label_value="NOT MET"
compound_structure_string=COc1cccc(C(=O)NN(C(=O)c2cc(C)ccc2[N+](=O)[O-])C(C)(C)C)c1C label_value=MET
compound_structure_string=CCc1c(OC)cccc1C(=O)NN(C(=O)c1cc(C)ccc1[N+](=O)[O-])C(C)(C)C label_value=MET
compound_structure_string=CCc1c(OC)cccc1C(=O)NN(C(=O)c1cc(C)cc(C)c1)C(C)(C)C=NNC(=O)C(N)=O label_value="NOT MET"
compound_structure_string=CCc1c(OC)cccc1C(=O)NN(C(=O)c1cc(Cl)ccc1OC)C(C)(C)C label_value=MET
compound_structure_string=CCc1ccc(C(=O)NN(C(=O)c2ccccc2CC)C(C)(C)C)cc1 label_value="NOT MET"
compound_structure_string=Cc1c(C(=O)NN(C(=O)c2ccc(F)cc2)C(C)(C)C)ccc2c1OCO2 label_value="NOT MET"
compound_structure_string=CCc1c(C(=O)NN(C(=O)c2cccc(C)c2)C(C)(C)C)ccc2c1OCCO2 label_value=MET
compound_structure_string=COc1ccc(C)cc1C(=O)N(NC(=O)c1cccc(OC)c1C)C(C)(C)C label_value="NOT MET"
compound_structure_string=Cc1ccc([N+](=O)[O-])c(C(=O)N(NC(=O)c2ccc3c(c2C)OCCO3)C(C)(C)C)c1 label_value=MET
compound_structure_string=CCc1c(C(=O)NN(C(=O)c2ccc(F)c(C(F)(F)F)c2)C(C)(C)C)ccc2c1OCCO2 label_value="NOT MET"
compound_structure_string=CCc1ccc(C(=O)NN(C(=O)c2cc(C)cc(Cl)c2)C(C)(C)C)cc1 label_value=MET
compound_structure_string=COc1ccccc1C(=O)N(NC(=O)c1ccc2c(c1C)OCOC2)C(C)(C)C label_value="NOT MET"
compound_structure_string=Cc1cc(C)cc(C(=O)N(NC(=O)c2ccc3c(c2)COCO3)C(C)(C)C)c1 label_value="NOT MET"
